tested on: MDA-MB-435 melanoma; assay: NCI-60 one-dose screen, 48 h; conditions: 10 µM unless noted
This is part of a sample that, as a whole, favours compounds with a hit. Of some 83,000 tested, about 20% had one in any assay. The source made the active and inactive calls. Rule for the calls: active = growth percent below 10; inactive = the rest.
# output must be one of active, inactive

What classification did OC1CCC(Cn2c(C(F)(F)F)cc3c(Cl)ncnc32)CC1 (stereo not drawn) end up with in this test? active

What classification did O=C(Cc1c(-c2ccccc2[N+](=O)[O-])n(-c2ncnc3c2c(-c2ccccc2)c(-c2ccccc2)n3Cc2ccccc2)[nH]c1=O)c1ccc(Cl)c(Cl)c1 end up with in this test? active

What classification did CC(C)(C)c1cc(-c2cc(-c3ccccc3)[nH]c(=O)c2C#N)cc(C(C)(C)C)c1 end up with in this test? inactive

What classification did O=C(CSc1nc2sc3c(c2c(=O)n1-c1ccc(Cl)cc1)CCCC3)NNC(=O)c1ccc(Br)cc1 end up with in this test? inactive

What classification did CC(Nc1ncnc2ccc(-c3ccc4oc(N)nc4c3)cc12)c1ccccc1 (stereo not drawn) end up with in this test? inactive

What classification did O=C(N/N=C/c1ccc(B(O)O)s1)c1[nH]c2ccc(Br)cc2c1-c1ccccc1 end up with in this test? active

What classification did CN(C(=O)CN1C(=O)/C(=C/c2ccco2)SC1=S)C1CCS(=O)(=O)C1 (stereo not drawn) end up with in this test? inactive

What classification did CCCn1c(NC(=O)c2cccc(C(N)=O)c2)nc2ccc(CN3CCCCC3)cc21 end up with in this test? inactive

What classification did O=C(O)CC1S/C(=N/N=C/c2nc3ccccc3s2)NC1=O (stereo not drawn) end up with in this test? inactive

What classification did O=[N+]([O-])c1cccc(-c2nnc3c(/C=C/c4ccc(F)cc4)nc4ccccc4n23)c1 end up with in this test? inactive

What classification did Cn1cc(-c2cc(N)n3nc(-c4c[nH]c5ccc(F)cc45)cc3n2)c2cc(Br)cnc21 end up with in this test? inactive

What classification did COc1cc(C=O)ccc1OC(=O)c1cc(-c2ccc(C)cc2)n(-c2ccc(S(C)(=O)=O)cc2)n1 end up with in this test? inactive

What classification did Cc1ccccc1Nc1nnc(-c2c[nH]c3ccccc23)o1 end up with in this test? active

====

test system: UACC-257 melanoma; experiment: NCI-60 one-dose screen, 48 h (100 = growth as untreated, 0 = no growth, -100 = all killed); conditions: 10 µM unless noted
The panel holds about 83,000 compounds, 20% with a hit somewhere; the sample as a whole holds those more often.
propertyLabel: growth (%)
Kindly provide the numeric value in % only, without the unit symbol.

Give the measured growth for COc1cc(CNC(=O)C[C@H](C)CCC=C(C)C)ccc1OCc1cn(-c2ccc(Cl)cc2Cl)nn1 92

Give the measured growth for O=C(c1ccc(O)cc1)C1[C@H](c2ccc(Cl)cc2)[C@@H](c2ccccc2)NC12C(=O)Nc1ccccc12 (stereo not given in full) 77.7

Give the measured growth for Cc1ccc(C(=O)Nc2cccc(C(=O)NC(=S)Nc3ccc(S(N)(=O)=O)cc3)c2)cc1 79.1

Give the measured growth for O=C(NN1C(=O)/C(=C/C=C/c2ccc([N+](=O)[O-])o2)SC1=S)c1ccc(O)cc1 -90.4

Give the measured growth for Cc1ccc(C(=O)C[n+]2cccc3c4ccccc4ccc32)cc1 5.16

Give the measured growth for COc1cccc(C(N)=Nc2ccc(OCCCCCCCCn3cncn3)cc2)c1 39.1

Give the measured growth for COc1cc(/C=N/NC(=O)c2ccc(OCc3nc4ccc(C)cc4[nH]3)cc2)cc(OC)c1OC 11.3

Give the measured growth for COc1ccc(NC(=O)CSc2nnc(-c3ccc(-c4nc5ccc(Cl)cc5[nH]4)cc3)o2)cc1 29

Give the measured growth for O=C(OCCOCCO)N(c1cccc(Br)c1)c1nc(SCCN2CCOCC2)nc2c1cnn2CC(Cl)c1ccc(Br)cc1 (stereo not given) 2.33

Give the measured growth for COc1ccc(/C=C/C(=O)c2ccc(OC)c(S(N)(=O)=O)c2)c(C(F)(F)F)c1 62.3

====

tested on: SNB-19 CNS; assay: NCI-60 one-dose screen, 48 h (100 = growth as untreated, 0 = no growth, -100 = all killed); conditions: 10 µM unless noted
About 83,000 compounds went through this panel and 20% of them were active in at least one assay; those are over-represented in the sample as a whole.
propertyLabel: growth (%)
Kindly provide the numeric value in % only, without the unit symbol.

Name the value of growth reported for O=C(Nc1nc2ccccc2s1)Nc1ccccc1Cl when tested on SNB-19 CNS. 70.4

Name the value of growth reported for CCOC(=O)/C(F)=C/C1CC1C1CCN(C(=O)OC(C)(C)C)CC1 (configuration not stated) when tested on SNB-19 CNS. 96.5

Name the value of growth reported for NS(=O)(=O)c1ccc(Nc2nc(SCC(=O)c3ccc(F)cc3)nc3ccccc23)cc1 when tested on SNB-19 CNS. 54.8

Name the value of growth reported for N#Cc1cc(-c2ccnc(Nc3ccc(N4CCN(C5COC5)CC4)cc3)n2)ccc1N1CCCC1 when tested on SNB-19 CNS. 117

Name the value of growth reported for COC(=O)c1cccc(Oc2ccc(NC(=O)Nc3cc(C(F)(F)F)ccc3F)cc2)c1 when tested on SNB-19 CNS. 10.7

Name the value of growth reported for Cc1nn(-c2ccccc2)c2nc(C)n(CC(=O)N/N=C/c3ccccc3O)c(=O)c12 when tested on SNB-19 CNS. 36.5

Name the value of growth reported for O=C(CSc1nc2sc3c(c2c(=O)n1-c1ccc(Cl)cc1)CCCC3)N/N=C/C=C/c1ccccc1 when tested on SNB-19 CNS. 27

====

tested on: ACHN renal; assay: NCI-60 one-dose screen, 48 h; settings: 10 µM unless noted
About 83,000 compounds went through this panel and 20% of them were active in at least one assay; those are over-represented in the sample as a whole. Active and inactive are the calls of the source. Rule for the calls: active = growth percent below 10; inactive = the rest.
# output must be one of TRUE = active, FALSE = inactive

What classification did Cc1ccc(-c2cc(C(=O)N=Nc3c(O)[nH]c4ccc(F)cc34)c3ccccc3n2)cc1 end up with in this test? FALSE

What classification did N#CCc1nnc(NC(=O)c2ccc(-n3c(=O)[nH]c4ccccc4c3=O)cc2)s1 end up with in this test? FALSE

What classification did Cc1[nH]nc2ccc3nc(-c4cnn(CCO)c4)c4c(c3c12)CCCC4 end up with in this test? FALSE

What classification did COc1ccc(C(=O)C[n+]2cccc3c4ccccc4ccc32)cc1 end up with in this test? FALSE

What classification did N/C(=N\c1nc2ccc([N+](=O)[O-])cc2s1)NC(=O)Nc1ccccc1Cl end up with in this test? TRUE

What classification did Cc1ccc(C(=O)Nc2cccc(C(=O)NC(=S)Nc3ccc(S(N)(=O)=O)cc3)c2)cc1 end up with in this test? FALSE

What classification did COc1ccc(N=Nc2c(N)nn3c(-c4ccc([N+](=O)[O-])cc4)ccnc23)cc1 end up with in this test? FALSE

What classification did COC(=O)c1cc(C(=O)C(Br)Br)n2c1ccc1c3ccccc3ccc12 end up with in this test? FALSE

What classification did Cc1ccc(C2CC(c3ccc(S(=O)(=O)NCCNc4nc(N(C)C)nc(N5CCOCC5)n4)cc3)=Nc3c(N)nc(N)nc3N2)cc1 (configuration not stated) end up with in this test? FALSE

What classification did CCCCNc1ccc2c3c(cccc13)C(=O)N(c1cccc(-c3nn(-c4ccccc4)cc3-c3nc4ccccc4s3)c1)C2=O end up with in this test? FALSE

What classification did Cc1cccc(/C=C/c2ccc(NC(=S)NCCCCN(C)C)cc2)c1 end up with in this test? TRUE

What classification did COc1ccc(NC(=O)Cn2c(/C=C/c3ccc([N+](=O)[O-])cc3)nc3ccccc3c2=O)cc1 end up with in this test? FALSE

What classification did COc1ccc(NC(=O)Cn2c(/C=C/c3cccc(Br)c3)nc3ccccc3c2=O)cc1 end up with in this test? TRUE

What classification did O=C(CSc1nc2c(c(=O)[nH]1)CCCC2)Nc1ccccc1C(=O)O end up with in this test? FALSE

What classification did CC1=C(C)C(=O)C(NCCN2CCOCC2)=C(Br)C1=O end up with in this test? FALSE

What classification did O=C(Nc1ccc(-c2ccc3c(c2)NC(=O)/C3=C\c2ccc[nH]2)cc1)Nc1ccc(Cl)c(Cl)c1 end up with in this test? FALSE

What classification did COc1cccc(NC(=O)c2ccc(NC(=O)CCl)s2)c1 end up with in this test? FALSE

What classification did Cn1cc(Nc2ncnc(-c3ccc(N4CCCC4)c(C#N)c3)n2)cn1 end up with in this test? FALSE

What classification did O=C(Cc1c(-c2cccc([N+](=O)[O-])c2)n(-c2ncnc3c2c(-c2ccccc2)c(-c2ccccc2)n3Cc2ccccc2)[nH]c1=O)c1ccc(Cl)c(Cl)c1 end up with in this test? FALSE

What classification did CN(C)CCOc1ccc(C(=O)C2[C@H](c3ccc(Cl)cc3)[C@@H](c3ccccc3)NC23C(=O)Nc2ccc(Cl)cc23)cc1 (some centres not stated) end up with in this test? TRUE

What classification did COc1ccc2c(c1)c(-c1cc(N)n3nc(-c4c[nH]c5ccccc45)cc3n1)cn2C end up with in this test? TRUE

What classification did Fc1ccc(Nc2nnc(-c3c[nH]c4ccccc34)o2)cc1 end up with in this test? FALSE

What classification did COc1ccc2[nH]c(=O)c(CSc3ccccc3Nc3nccc(-c4ccc(Cl)cc4)n3)cc2c1 end up with in this test? FALSE

What classification did Nc1nnc(-c2cncc(Br)c2)c(-c2c[nH]c3ccc(Cl)cc23)n1 end up with in this test? FALSE

What classification did Cc1ccc(-c2cc(-c3ccccc3)[nH]c(=O)c2C#N)cc1 end up with in this test? FALSE

What classification did Cc1ccccc1NC(=O)c1cccc(NC(=O)CCl)c1 end up with in this test? FALSE

What classification did O=C(Nc1ccc(-c2ccc3c(c2)NC(=O)/C3=C\c2ccc[nH]2)cc1)Nc1ccc(Cl)c(C(F)(F)F)c1 end up with in this test? FALSE

What classification did O=C(/C=C1\C(=O)N(Cc2ccccc2)c2ccccc21)c1cc2ccccc2oc1=O end up with in this test? FALSE

What classification did COc1ccc([C@H]2C(C(=O)c3ccc(Cl)cc3)C3(N[C@@H]2c2ccccc2)C(=O)Nc2ccccc23)cc1 (some centres not stated) end up with in this test? FALSE

What classification did CN(C)c1nc(NCCNS(=O)(=O)c2ccc(C(=O)/C=C/c3ccc(Cl)cc3)cc2)nc(N2CCOCC2)n1 end up with in this test? FALSE

What classification did COC(=O)c1ccc(-c2c(-c3ccccc3)c(F)c3oc(C(=O)OC)c(N)c3c2-c2ccccc2)cc1 end up with in this test? FALSE

What classification did C/C(=N/O)c1ccc(NC(=O)CSc2nnc(-c3ccc4nc(-c5ccc(Cl)cc5)[nH]c4c3)o2)cc1 end up with in this test? FALSE
